Subject of test: T1, human TL1A extracellular domain with N-terminal HIS and FLAG tag (human, UniProt O95150 72-251)
T1 sequence: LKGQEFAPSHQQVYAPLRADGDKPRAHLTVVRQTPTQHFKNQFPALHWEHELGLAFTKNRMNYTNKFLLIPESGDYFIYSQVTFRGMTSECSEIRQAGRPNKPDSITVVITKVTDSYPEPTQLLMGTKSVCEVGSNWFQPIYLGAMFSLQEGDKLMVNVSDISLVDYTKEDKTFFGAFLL
Test: cell-based or functional assay
Outcome measure: Antibody IC50, TL1A induced caspase potency assay in TF-1 cells

{"Binder": "320-588 (antibody, human IgG1, name in Kabat numbering, V domains shown, full-length human IgG1, lambda) VH: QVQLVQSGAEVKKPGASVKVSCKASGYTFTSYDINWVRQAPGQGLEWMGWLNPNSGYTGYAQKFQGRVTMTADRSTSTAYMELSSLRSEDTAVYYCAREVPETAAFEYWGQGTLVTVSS VL: QSVLTQPPSVSGAPGQRVTISCTSSSSDIGAALGVHWYQQLPGTAPKLLIEGYYNRPSGVPDRFSGSKSGTSASLTITGLLPEDEGDYYCQSYDGTLSALFGGGTKLTVLG", "Result": "4 ng/mL"}
{"Binder": "320-595 (antibody, human IgG1, name in Kabat numbering, V domains shown, full-length human IgG1, lambda) VH: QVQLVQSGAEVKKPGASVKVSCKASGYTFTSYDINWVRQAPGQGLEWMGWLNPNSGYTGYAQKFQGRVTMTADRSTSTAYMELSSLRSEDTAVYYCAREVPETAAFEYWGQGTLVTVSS VL: QSVLTQPPSVSGAPGQRVTISCTSSSSDIGAGLGVLWYQQLPGTAPKLLIEGYYNRPSGVPDRFSGSKSGTSASLTITGLLPEDEGDYYCQSWDGTLSALFGGGTKLTVLG", "Result": "3 ng/mL"}

The reported measurements were obtained from patent US20170081400A1.
